Molecular target: T1, human cholecystokinin-2 receptor (human, UniProt P32239 1-447)
T1 construct: whole, on cells; also called CCK-2R; CCK-2 receptor
T1 sequence (looked up): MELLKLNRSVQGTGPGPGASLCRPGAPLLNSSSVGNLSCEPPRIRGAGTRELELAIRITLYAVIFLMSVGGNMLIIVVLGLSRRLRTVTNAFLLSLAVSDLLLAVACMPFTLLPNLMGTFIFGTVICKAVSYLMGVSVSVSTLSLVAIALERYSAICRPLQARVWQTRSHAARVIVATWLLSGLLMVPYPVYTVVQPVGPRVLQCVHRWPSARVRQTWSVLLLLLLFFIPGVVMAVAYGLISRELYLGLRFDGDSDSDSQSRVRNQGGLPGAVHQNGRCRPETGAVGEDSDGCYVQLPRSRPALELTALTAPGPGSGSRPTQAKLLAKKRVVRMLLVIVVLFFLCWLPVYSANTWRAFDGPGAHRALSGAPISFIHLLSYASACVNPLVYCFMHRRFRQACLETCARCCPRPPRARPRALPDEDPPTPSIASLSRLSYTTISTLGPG
Experiment: SPA competition vs [125I]-CCK-8s, membranes
Starred links: 1 amine or outer side, 2 acyl side, 3 side chain; linkers in the order of their positions; H or OH if unused. Non-standard residues stand in square brackets, D forms with d. *: point of attachment. Phe(4-CH2SO3H) = N[C@@H](Cc1ccc(CS(=O)(=O)O)cc1)C(=O)O; C20 diacid = O=C(O)CCCCCCCCCCCCCCCCCCC(=O)*; sY = N[C@@H](Cc1ccc(OS(=O)(=O)O)cc1)C(=O)O; C18 diacid = O=C(O)CCCCCCCCCCCCCCCCC(=O)*; γGlu = O=C(O)[C@H](CCC(=O)[*:2])N[*:1]; C14 diacid = O=C(O)CCCCCCCCCCCCC(=O)*; NMeF = CN[C@@H](Cc1ccccc1)C(=O)O; dNMeD = CN[C@H](CC(=O)O)C(=O)O; Nle = CCCC[C@H](N)C(=O)O; AEEA = NCCOCCOCC(=O)O
What log10(IC50) was measured for each of the following?
The base-10 logarithm of IC50, taken with IC50 in nM, is what appears here.

Data request: Supply log10(IC50) value. Item: {C18 diacid-γGlu-AEEA-AEEA}-D[sY]FGW[Nle][dNMeD][NMeF]-NH2 (SMILES CCCC[C@H](NC(=O)[C@H](Cc1c[nH]c2ccccc12)NC(=O)CNC(=O)[C@H](Cc1ccccc1)NC(=O)[C@H](Cc1ccc(OS(=O)(=O)O)cc1)NC(=O)[C@H](CC(=O)O)NC(=O)COCCOCCNC(=O)COCCOCCNC(=O)CC[C@H](NC(=O)CCCCCCCCCCCCCCCCC(=O)O)C(=O)O)C(=O)N(C)[C@H](CC(=O)O)C(=O)N(C)[C@@H](Cc1ccccc1)C(N)=O, X = Nle or Nal)
Data returned: 3.75

Data request: Supply log10(IC50) value. Item: {C18 diacid-γGlu-AEEA-AEEA}-D[sY]HGW[Nle][dNMeD][NMeF]-NH2 (X = Nle or Nal)
Data returned: 3.95

Data request: Supply log10(IC50) value. Item: {C18 diacid-γGlu-AEEA-AEEA}-[dE][sY]LGW[Nle][dNMeD][NMeF]-NH2 (X = Nle or Nal)
Data returned: 2.85

Data request: Supply log10(IC50) value. Item: {C18 diacid-γGlu-AEEA-AEEA}-E[sY]LGW[Nle][dNMeD][NMeF]-NH2 (X = Nle or Nal)
Data returned: 3.38

Data request: Supply log10(IC50) value. Item: {C18 diacid-γGlu-AEEA-AEEA}-D[Phe(4-CH2SO3H)]LGW[Nle][dNMeD][NMeF]-NH2 (X = Nle or Nal)
Data returned: 2.58

Data request: Supply log10(IC50) value. Item: {C20 diacid-γGlu-AEEA-AEEA}-E[sY]LGW[Nle][dNMeD][NMeF]-NH2 (SMILES CCCC[C@H](NC(=O)[C@H](Cc1c[nH]c2ccccc12)NC(=O)CNC(=O)[C@H](CC(C)C)NC(=O)[C@H](Cc1ccc(OS(=O)(=O)O)cc1)NC(=O)[C@H](CCC(=O)O)NC(=O)COCCOCCNC(=O)COCCOCCNC(=O)CC[C@H](NC(=O)CCCCCCCCCCCCCCCCCCC(=O)O)C(=O)O)C(=O)N(C)[C@H](CC(=O)O)C(=O)N(C)[C@@H](Cc1ccccc1)C(N)=O, X = Nle or Nal)
Data returned: 2.63

Data request: Supply log10(IC50) value. Item: {C14 diacid-γGlu-AEEA-AEEA}-E[sY]LGW[Nle][dNMeD][NMeF]-NH2 (SMILES CCCC[C@H](NC(=O)[C@H](Cc1c[nH]c2ccccc12)NC(=O)CNC(=O)[C@H](CC(C)C)NC(=O)[C@H](Cc1ccc(OS(=O)(=O)O)cc1)NC(=O)[C@H](CCC(=O)O)NC(=O)COCCOCCNC(=O)COCCOCCNC(=O)CC[C@H](NC(=O)CCCCCCCCCCCCC(=O)O)C(=O)O)C(=O)N(C)[C@H](CC(=O)O)C(=O)N(C)[C@@H](Cc1ccccc1)C(N)=O, X = Nle or Nal)
Data returned: 3.08

From: patent US20170008928A1
